Values compiled from paper PMC7179183.

assay: Cytotoxicity in uninfected MT-4 cells, MTT method; type: cell-based; details: human; uninfected MT-4 cells; viability reduced by 50%; read-out: CC50
recorded-endpoint: CC50

molecule | data-value
Cc1ccnc2c1NC(=O)c1cccnc1N2C1CC1 [NVP, nevirapine, reference compound] | > 15 µM
Cc1cc(/C=C/C#N)cc(C)c1Nc1ccnc(Nc2ccc(C#N)cc2)n1 [RPV, rilpivirine, reference compound] | 5.89 µM

Short answer for Cc1cc(C#N)cc(C)c1Oc1nc(Nc2ccc(C#N)cc2)nc(N)c1Br [ETR, etravirine, reference compound] : CC50 was > 4.6 µM

---

tested on: K103N + Y181C double RT mutant HIV-1 strain; experiment: Anti-HIV-1 activity against K103N + Y181C double mutant strain in MT-4 cells; assay type: cell-based; details: Human immunodeficiency virus 1, MT4, read-out: EC50 K103N + Y181C
recorded-endpoint: pEC50
API: returns pEC50 as number; meaning -log10 of concentration in mol/L.

compound | recorded-endpoint | data-value
Cc1cc(/C=C/C#N)cc(C)c1Nc1ccnc(Nc2ccc(C#N)cc2)n1 [RPV, rilpivirine, reference compound] | pEC50 | 8.05
Nc1ccn([C@@H]2CS[C@H](CO)O2)c(=O)n1 [Compound 3TC, lamivudine, reference compound] | pEC50 | 5.26

// next entry
Short answer for Cc1cc(C#N)cc(C)c1Oc1nc(Nc2ccc(C#N)cc2)nc(N)c1Br [ETR, etravirine, reference compound] : pEC50 was 7.40

---

system: MT-4 cells; assay: Cytotoxicity in uninfected MT-4 cells, MTT method; format: cell-based; settings: uninfected MT-4 cells; viability reduced by 50%
recorded-endpoint: CC50 (µM)
Only the number, expressed in µM, is required.

molecule | data-value
N#Cc1ccc(Nc2nccc(C(C#N)c3ccc(-c4cccc(F)c4)cc3F)n2)cc1 (racemic) [Compound 10k] | 30.7

Short answer for Cc1ccccc1-c1ccc(C(C#N)c2ccnc(Nc3ccc(C#N)cc3)n2)c(F)c1 (racemic) [Compound 10d] : CC50 was 30.1

Short answer for N#Cc1ccc(Nc2nccc(C(C#N)c3ccc(-c4ccccc4F)cc3F)n2)cc1 (racemic) [Compound 10j] : CC50 was 27.9

Short answer for N#Cc1ccc(Nc2nccc(C(C#N)c3ccc(-c4ccc(F)cc4)cc3F)n2)cc1 (racemic) [Compound 10l] : CC50 was 25.6

Short answer for N#Cc1ccc(Nc2nccc(C(C#N)c3ccc(-c4ccccc4)c(F)c3)n2)cc1 (racemic) [Compound 10b] : CC50 was 27.3

Short answer for N#Cc1ccc(Nc2nccc(C(C#N)c3ccc(-c4ccccc4Cl)cc3F)n2)cc1 (racemic) [Compound 10m] : CC50 was 22.5

Short answer for N#Cc1ccc(Nc2nccc(C(C#N)c3ccc(-c4ccccc4)cc3F)n2)cc1 (racemic) [Compound 10c] : CC50 was 23.8

Short answer for COc1cccc(-c2ccc(C(C#N)c3ccnc(Nc4ccc(C#N)cc4)n3)c(F)c2)c1 (racemic) [Compound 10h] : CC50 was 30.7

Short answer for Cc1ccc(-c2ccc(C(C#N)c3ccnc(Nc4ccc(C#N)cc4)n3)c(F)c2)cc1 (racemic) [Compound 10f] : CC50 was 30.9

Short answer for COc1ccc(-c2ccc(C(C#N)c3ccnc(Nc4ccc(C#N)cc4)n3)c(F)c2)cc1 (racemic) [Compound 10i] : CC50 was 183

Short answer for N#Cc1ccc(Nc2nccc(C(C#N)c3ccc(-c4cccc(Cl)c4)cc3F)n2)cc1 (racemic) [Compound 10n] : CC50 was 27.6

Short answer for N#Cc1ccc(Nc2nccc(C(C#N)c3ccc(-c4ccc(C#N)cc4)cc3F)n2)cc1 (racemic) [Compound 10p] : CC50 was 36.4

Short answer for Cc1cccc(-c2ccc(C(C#N)c3ccnc(Nc4ccc(C#N)cc4)n3)c(F)c2)c1 (racemic) [Compound 10e] : CC50 was 26.9

Short answer for COc1ccccc1-c1ccc(C(C#N)c2ccnc(Nc3ccc(C#N)cc3)n2)c(F)c1 (racemic) [Compound 10g] : CC50 was 30.1

Short answer for N#Cc1ccc(Nc2nccc(C(C#N)c3ccc(-c4ccccc4)cc3)n2)cc1 (racemic) [Compound 10a] : CC50 was 30.8

Short answer for N#Cc1ccc(Nc2nccc(C(C#N)c3ccc(-c4ccc(Cl)cc4)cc3F)n2)cc1 (racemic) [Compound 10o] : CC50 was 27.5

---

tested on: F227L + V106A double RT mutant HIV-1 strain; experiment: Anti-HIV-1 activity against F227L + V106A double mutant strain in MT-4 cells; format: cell-based; settings: MT-4 cells; read-out: EC50 F227L + V106A
pEC50: −log10 of the molar value.
recorded-endpoint: pEC50

Observe how each entry below is paired with its result.
compound | pEC50
N#Cc1ccc(Nc2nccc(C(C#N)c3ccc(-c4cccc(F)c4)cc3F)n2)cc1 (racemic) [Compound 10k] | < 4.51
N#Cc1ccc(Nc2nccc(C(C#N)c3ccc(-c4ccc(Cl)cc4)cc3F)n2)cc1 (racemic) [Compound 10o] | < 4.56
N#Cc1ccc(Nc2nccc(C(C#N)c3ccc(-c4ccccc4Cl)cc3F)n2)cc1 (racemic) [Compound 10m] | < 4.65

Short answer for Cc1ccccc1-c1ccc(C(C#N)c2ccnc(Nc3ccc(C#N)cc3)n2)c(F)c1 (racemic) [Compound 10d] : pEC50 was < 4.52

Short answer for Cc1cccc(-c2ccc(C(C#N)c3ccnc(Nc4ccc(C#N)cc4)n3)c(F)c2)c1 (racemic) [Compound 10e] : pEC50 was < 4.57

Short answer for COc1ccc(-c2ccc(C(C#N)c3ccnc(Nc4ccc(C#N)cc4)n3)c(F)c2)cc1 (racemic) [Compound 10i] : pEC50 was 4.28

Short answer for N#Cc1ccc(Nc2nccc(C(C#N)c3ccc(-c4ccccc4)cc3F)n2)cc1 (racemic) [Compound 10c] : pEC50 was < 4.62

---

system: F227L + V106A double RT mutant HIV-1 strain; assay: Anti-HIV-1 activity against F227L + V106A double mutant strain in MT-4 cells; format: cell-based; conditions: Human immunodeficiency virus 1, MT4, read-out: EC50 F227L + V106A
recorded-endpoint: EC50 (nM)
Only the number, expressed in nM, is required.

Observe how each entry below is paired with its result.
compound | tested-target | data-value
Nc1ccn([C@@H]2CS[C@H](CO)O2)c(=O)n1 [Compound 3TC, lamivudine, reference compound] | F227L + V106A double RT mutant HIV-1 strain | 2690
Cc1cc(/C=C/C#N)cc(C)c1Nc1ccnc(Nc2ccc(C#N)cc2)n1 [RPV, rilpivirine, reference compound] | F227L + V106A double RT mutant HIV-1 strain | 44

// next entry
Short answer for Cc1cc(C#N)cc(C)c1Oc1nc(Nc2ccc(C#N)cc2)nc(N)c1Br [ETR, etravirine, reference compound] : EC50 was 14

---

tested on: WT HIV-1 (strain IIIB); experiment: microbe, parasite or virus in culture; format: cell-based; settings: MT-4 cells; protection against virus-induced cytopathicity by 50%; mean of at least three experiments; read-out: EC50 HIV-1 IIIB
recorded-endpoint: pEC50
API: returns pEC50 as number; meaning -log10 of concentration in mol/L.

compound | data-value
N#Cc1ccc(Nc2nccc(C(C#N)c3ccc(-c4ccc(Cl)cc4)cc3F)n2)cc1 (racemic) [Compound 10o] | 6.74
N#Cc1ccc(Nc2nccc(C(C#N)c3ccc(-c4cccc(Cl)c4)cc3F)n2)cc1 (racemic) [Compound 10n] | 6.41
Cc1cccc(-c2ccc(C(C#N)c3ccnc(Nc4ccc(C#N)cc4)n3)c(F)c2)c1 (racemic) [Compound 10e] | 6.37
N#Cc1ccc(Nc2nccc(C(C#N)c3ccc(-c4ccccc4)c(F)c3)n2)cc1 (racemic) [Compound 10b] | 5.30
Cc1ccccc1-c1ccc(C(C#N)c2ccnc(Nc3ccc(C#N)cc3)n2)c(F)c1 (racemic) [Compound 10d] | 6.37

Short answer for N#Cc1ccc(Nc2nccc(C(C#N)c3ccc(-c4ccccc4F)cc3F)n2)cc1 (racemic) [Compound 10j] : pEC50 was 6.68

Short answer for COc1ccccc1-c1ccc(C(C#N)c2ccnc(Nc3ccc(C#N)cc3)n2)c(F)c1 (racemic) [Compound 10g] : pEC50 was 6.21

---

system: WT HIV-1 (strain IIIB); assay: microbe, parasite or virus in culture; type: cell-based; settings: MT-4 cells; protection against virus-induced cytopathicity by 50%; mean of at least three experiments; read-out: EC50 HIV-1 IIIB
recorded-endpoint: EC50 (nM)
Only the number, expressed in nM, is required.

Observe how each entry below is paired with its result.
compound | tested-target | EC50 (nM)
N#Cc1ccc(Nc2nccc(C(C#N)c3ccc(-c4ccccc4)cc3)n2)cc1 (racemic) [Compound 10a] | WT HIV-1 (strain IIIB) | 2900
COc1ccc(-c2ccc(C(C#N)c3ccnc(Nc4ccc(C#N)cc4)n3)c(F)c2)cc1 (racemic) [Compound 10i] | WT HIV-1 (strain IIIB) | 510
N#Cc1ccc(Nc2nccc(C(C#N)c3ccc(-c4ccccc4)cc3F)n2)cc1 (racemic) [Compound 10c] | WT HIV-1 (strain IIIB) | 330
COc1cccc(-c2ccc(C(C#N)c3ccnc(Nc4ccc(C#N)cc4)n3)c(F)c2)c1 (racemic) [Compound 10h] | WT HIV-1 (strain IIIB) | 1500
N#Cc1ccc(Nc2nccc(C(C#N)c3ccc(-c4cccc(F)c4)cc3F)n2)cc1 (racemic) [Compound 10k] | WT HIV-1 (strain IIIB) | 560
Cc1ccc(-c2ccc(C(C#N)c3ccnc(Nc4ccc(C#N)cc4)n3)c(F)c2)cc1 (racemic) [Compound 10f] | WT HIV-1 (strain IIIB) | 430

Short answer for N#Cc1ccc(Nc2nccc(C(C#N)c3ccc(-c4ccc(C#N)cc4)cc3F)n2)cc1 (racemic) [Compound 10p] : EC50 was 27

Short answer for N#Cc1ccc(Nc2nccc(C(C#N)c3ccc(-c4ccc(F)cc4)cc3F)n2)cc1 (racemic) [Compound 10l] : EC50 was 180

Short answer for N#Cc1ccc(Nc2nccc(C(C#N)c3ccc(-c4ccccc4Cl)cc3F)n2)cc1 (racemic) [Compound 10m] : EC50 was 280
